# recorded.conditions: in n-propanol, 303.15 K
assay.readout: solubility (mole fraction)
Please give only the number in your answer, with no unit.

Ask | Need solubility (mole fraction), item Cc1cccc(C(=O)O)c1N
Reply | 0.0344

---

# recorded.conditions: in methanol, 313.15 K
assay.readout: solubility (mole fraction)
Give your answer as a number; write no unit.

Ask | Which solubility (mole fraction) is listed for Cc1cccc(C(=O)O)c1N ?
Reply | 0.055

---

# recorded.conditions: in acetone, 278.15 K
assay.readout: solubility (mole fraction)

Ask | Quick one: solubility (mole fraction) for Cc1cccc(C(=O)O)c1N ?
Reply | 0.0745

---

# recorded.conditions: in toluene, 303.15 K
assay.readout: solubility (mole fraction)
Please reply with the number alone, leaving off any unit.

Ask | Need solubility (mole fraction), item Cc1cccc(C(=O)O)c1N
Reply | 0.00382

---

# recorded.conditions: in 1,4-dioxane, 318.15 K
assay.readout: solubility (mole fraction)

Ask | solubility (mole fraction) lookup needed for Cc1cccc(C(=O)O)c1N , thanks.
Reply | 0.171

---

# recorded.conditions: in acetonitrile, 308.15 K
assay.readout: solubility (mole fraction)
// print number alone

Ask | Return reported solubility (mole fraction); argument: Cc1cccc(C(=O)O)c1N
Reply | 0.0628

---

# recorded.conditions: in 1,4-dioxane, 303.15 K
assay.readout: solubility (mole fraction)

Ask | Returns the measured solubility (mole fraction) for the input compound. Input: Cc1cccc(C(=O)O)c1N
Reply | 0.137

---

# recorded.conditions: in acetone, 288.15 K
assay.readout: solubility (mole fraction)

Ask | solubility (mole fraction) lookup needed for Cc1cccc(C(=O)O)c1N , thanks.
Reply | 0.0918

---

# recorded.conditions: in acetone, 313.15 K
assay.readout: solubility (mole fraction)
Number only, no unit.

Ask | Find the recorded solubility (mole fraction) belonging to Cc1cccc(C(=O)O)c1N and report it.
Reply | 0.143

---

# recorded.conditions: in ethanol, 298.15 K
assay.readout: solubility (mole fraction)
# respond with the number and nothing more

Ask | Suppose we examine the compound Cc1cccc(C(=O)O)c1N ; what solubility (mole fraction) value has been reported?
Reply | 0.0333

---

# recorded.conditions: in ethyl acetate, 288.15 K
assay.readout: solubility (mole fraction)

Ask | Param item = Cc1cccc(C(=O)O)c1N ; retrieve measured solubility (mole fraction).
Reply | 0.0405

---

# recorded.conditions: in 1,4-dioxane, 288.15 K
assay.readout: solubility (mole fraction)
Respond with the number and no other words.

Ask | Using the record for Cc1cccc(C(=O)O)c1N , report its solubility (mole fraction).
Reply | 0.108

---

# recorded.conditions: in n-butanol, 318.15 K
assay.readout: solubility (mole fraction)
Simply state the number, no unit and no words.

Ask | I would be grateful if you could share the reported solubility (mole fraction) for Cc1cccc(C(=O)O)c1N .
Reply | 0.0498

---

# recorded.conditions: in acetonitrile, 313.15 K
assay.readout: solubility (mole fraction)
No unit in the answer, only the number.

Ask | Look up solubility (mole fraction) for this molecule: Cc1cccc(C(=O)O)c1N
Reply | 0.0727

---

# recorded.conditions: in n-propanol, 298.15 K
assay.readout: solubility (mole fraction)
Answer as a number with no unit attached.

Ask | Would you kindly share the measured solubility (mole fraction) for Cc1cccc(C(=O)O)c1N ?
Reply | 0.0293

---

# recorded.conditions: in n-butanol, 288.15 K
assay.readout: solubility (mole fraction)
Please give only the number in your answer, with no unit.

Ask | // query solubility (mole fraction) value for entry Cc1cccc(C(=O)O)c1N
Reply | 0.0176
